Data origin: paper PMC5491343

# study system: T1, ZAP-70 Y315F/Y319F (UniProt P43403 1-619, Y315F | Y319F)
# T1 sequence (looked up): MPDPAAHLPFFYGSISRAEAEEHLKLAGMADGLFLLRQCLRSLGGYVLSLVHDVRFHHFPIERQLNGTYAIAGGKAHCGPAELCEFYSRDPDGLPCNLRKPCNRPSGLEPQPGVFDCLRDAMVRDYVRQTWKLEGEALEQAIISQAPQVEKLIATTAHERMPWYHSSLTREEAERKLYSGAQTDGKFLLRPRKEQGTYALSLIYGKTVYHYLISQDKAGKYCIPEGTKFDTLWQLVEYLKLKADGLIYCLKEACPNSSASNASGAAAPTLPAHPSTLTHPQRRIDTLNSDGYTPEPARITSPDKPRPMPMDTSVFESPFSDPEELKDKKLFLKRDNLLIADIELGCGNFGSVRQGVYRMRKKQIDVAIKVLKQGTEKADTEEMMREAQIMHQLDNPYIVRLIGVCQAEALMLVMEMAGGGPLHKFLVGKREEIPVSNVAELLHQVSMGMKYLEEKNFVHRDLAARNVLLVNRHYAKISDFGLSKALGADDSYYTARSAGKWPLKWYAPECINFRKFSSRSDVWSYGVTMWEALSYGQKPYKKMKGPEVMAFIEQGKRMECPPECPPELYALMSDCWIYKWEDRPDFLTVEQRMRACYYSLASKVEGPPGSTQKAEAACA
# protocol text: fluorescence polarisation
pKd: −log10 of the molar value. Square brackets hold non-standard residues; d marks the D form. Ends that are not written are not given here. pY = N[C@@H](Cc1ccc(OP(=O)(O)O)cc1)C(=O)O

| binder | pKd |
| --- | --- |
| C(TAMRA C5 maleimide)GNQL[pY]NELNLGRREE[pY]DVLD | 7.09 |
